Origin of the recorded values: patent EP4763838A1

study.system: BRD protein (Homo sapiens, UniProt O60885)
Construct: endogenous in cells; host or cells: MV-4-11
experiment: Reduction of bromodomain protein (BRD) expression levels in MV-4-11 cells (Western blot, DC50 and Dmax)
Format: cell-based
run.parameters: MV4-11, 24 hours of treatment, 0.1, 1, 10 and 20 µM, BRD4 Western blot, GAPDH internal reference
Procedure: The human […] MV-4-11 cells selected in this experiment were cultured in Iscove's Modified Dulbecco's Medium (IMDM) culture medium containing 10% fetal bovine serum (Gibco, USA) in an incubator under the conditions of at 37°C, 5% CO2 and 95% humidity. […] The concentration of the protein in the extract was detected by using a BCA method. […]
Readings of Dmax for the listed compounds

Below: 3 compounds and their reported Dmax.
[
  {
    "compound": "Cc1sc2c(c1C)C(c1ccc(Cl)cc1)=N[C@@H](CC(=O)NCCCC(=O)N1CCN(c3ccc(C4CCC(=O)NC4=O)nn3)CC1)c1nnc(C)n1-2 (stereo partly shown)",
    "Dmax": "< 50%"
  },
  {
    "compound": "Cc1sc2c(c1C)C(c1ccc(Cl)cc1)=N[C@@H](CC(=O)NCCCCCOC1CN(c3ccc(C4CCC(=O)NC4=O)nn3)C1)c1nnc(C)n1-2 (stereo partly shown)",
    "Dmax": "> 85%"
  },
  {
    "compound": "COc1nnc(C2CCC(=O)NC2=O)cc1N1CCN(C(=O)COCCNC(=O)C[C@@H]2N=C(c3ccc(Cl)cc3)c3c(sc(C)c3C)-n3c(C)nnc32)CC1 (stereo partly shown)",
    "Dmax": "< 50%"
  }
]

Next:
Data request: Which measured Dmax value corresponds to Cc1cc(N2CCN(C(=O)COCCNC(=O)C[C@@H]3N=C(c4ccc(Cl)cc4)c4c(sc(C)c4C)-n4c(C)nnc43)CC2)nnc1C1CCC(=O)NC1=O (stereo partly shown) ?
Data returned: 50 to 85%
